Tested on: BIKE
Construct: gene BMP2K
conditionsUsed: concentration: 1 μM, replicates: in singlicate; n = 1;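 note: KINOMEscan kinase panel screen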
Entry flag: YES if %Inh reaches 20%; NO if it does not.

• Cc1cccc(-c2nc(Nc3cccc(C(N)=O)c3)c3ccccc3n2)n1 = NO
• CN(C)CCN(C)C(=O)c1cc(-c2ccncc2)c(-c2ccc(Cl)c(O)c2)o1.Cl.Cl = NO
• CC1=C(C(=O)Nc2cc3cn[nH]c3cc2F)C(c2ccc(C(F)(F)F)cc2)CC(=O)N1 (stereo not drawn) = NO
• Cc1ccc(C(=O)Nc2ccc(Nc3ccnc4cc(-c5ccccn5)ccc34)cc2O)cc1.Cl = YES
• Fc1cc(Cl)ccc1Nc1ccnc2cc(I)ccc12 = NO
• Cn1ccc2ncnc(Oc3ccc(Nc4nc5ccccc5[nH]4)cc3)c21 = NO
• COc1ccc2nc(-c3cccc(C)n3)nc(Nc3ccncc3)c2c1 = NO
• Cc1cccc(-c2nc(Nc3ccc4[nH]ncc4c3)c3ccccc3n2)n1 = YES

* * *

Tested on: JNK3
Construct: gene MAPK10
conditionsUsed: concentration: 1 μM, replicates: in singlicate; n = 1
compounds and their reported %Inh
quantityName: %Inh (%)

• Cn1cncc1-c1ccc2ncnc(Nc3ccc(OCc4ccccc4)cc3)c2c1 = 4
• Cl.O=C(Nc1cccc(-c2nn3ncccc3c2-c2ccnc(Nc3cccnc3)n2)c1)c1c(F)cccc1F = 19
• O=S(=O)(c1ccc(-c2ccnc3[nH]ccc23)cc1)N1CCCC1 = 17
• Cl.NC(=O)c1cccc(Nc2nccc(Nc3ccc(Oc4cccc(Cl)c4)c(Cl)c3)n2)c1 = 10
• Cc1csc(-c2nc(Nc3ccncc3)c3ccccc3n2)n1 = 15
• COC(=O)c1c(-c2ccccc2)c2cc(C(=O)O)ccc2c(=O)n1Cc1ccccc1 = 0
• O=C(Nc1n[nH]c2nc(-c3nccs3)c(Br)cc12)C1CC1 = 16
• CN1C(=O)C(Nc2ccc(Cl)c(C(=O)O)c2)=C(c2ccc(Cl)cc2)C1=O = 7
• Cn1ccc2ncnc(Oc3ccc(Nc4nc5ccccc5[nH]4)cc3)c21 = 0

* * *

System: ERK3
Construct: gene MAPK6
conditionsUsed: concentration: 1 μM, replicates: in singlicate; n = 1
compounds and their reported %Inh
quantityName: %Inh (%)

• CCCc1ccc(S(=O)(=O)NC2CCN(c3ccnc(Nc4ccc(F)cc4)n3)C2)cc1 (stereo not shown) = 0
• O=C(Nc1n[nH]c2nc(-c3nccs3)c(Br)cc12)C1CCCC1 = 0
• CC(C)(C)c1ccc(C(=O)Nc2cn3cc(-c4cccnc4)ccc3n2)cc1 = 14
• Cn1ccc2ncnc(Oc3ccc(Nc4nc5ccccc5[nH]4)cc3)c21 = 0
• Cc1ccc(NC(=O)Nc2cc(C(C)(C)C)nn2-c2ccccc2)cc1 = 7
• Nc1ncnc2[nH]c(-c3ccccc3)nc12 = 0
• Cc1nnc(-c2ccc3occ(-c4ccc(S(C)=O)cc4)c3c2)[nH]1 (stereo not shown) = 13
• COc1ccc(C2=C(Nc3cccc(C(=O)O)c3)C(=O)NC2=O)cc1 = 19
• Cl.Oc1ccc(-c2nc(-c3ccccc3)[nH]c2-c2ccncc2)cc1 = 0
• COc1cc2ncn(-c3cc(OCC4CCCO4)c(C(N)=O)s3)c2cc1OC (stereo not shown) = 20

* * *

Tested on: MEK6
Construct: gene MAP2K6
conditionsUsed: concentration: 1 μM, replicates: in singlicate; n = 1
compounds and their reported %Inh
quantityName: %Inh (%)

* Fc1cc(Cl)ccc1Nc1ccnc2cc(-c3ccc(CN4CCCCC4)o3)ccc12 [GW560116] | 2
* COc1cc2ncnc(Nc3ccc4nc(-c5ccccc5)[nH]c4c3)c2cc1OC.Cl [GW282450] | 0
* Cl.O=C(Nc1cccc(-c2nn3ncccc3c2-c2ccnc(Nc3cccnc3)n2)c1)c1c(F)cccc1F [GSK312879] | 0
* COc1ccccc1CNC(=O)c1cc(C(=O)c2ccccc2C)c[nH]1 [GSK364507] | 0
* Cn1ccc2ncnc(Oc3ccc(Nc4nc5ccccc5[nH]4)cc3)c21 | 0
